Experimental Readout: melting point

Molecule	melting point
CN1CCCN(c2ccc3cc(-c4cn5cccc(F)c5n4)c(=O)oc3c2)CC1 [Compound 295]	174 to 176 °C
O=c1oc2cc(OC3CCNCC3)ccc2cc1-c1nc2ccccc2s1 [Compound 46]	220 to 226 °C
COc1c(F)cc(F)cc1-c1cc2ccc(N3CCNCC3)cc2oc1=O [Compound 538]	109 to 111 °C

Data request, read-out melting point, for Cc1cccnc1Nc1cc2ccc(N3CCNCC3)cc2oc1=O [Compound 61]
164 to 167 °C

Proceed to Cc1cn2cc(-c3cc4ccc(N5CCC(CN)CC5)cc4oc3=O)cc2c(C)n1 [Compound 784]
256 to 259 °C

Proceed to Cc1cn2cc(-c3cc4ccc(CCN(C)CCO)cc4oc3=O)nc2c(C)n1 [Compound 871]
168 to 172 °C

Proceed to CC1(C)CN(c2ccc3cc(-c4cn5ccc(C(F)(F)F)cc5n4)c(=O)oc3c2)CCN1 [Compound 269]
221 to 227 °C

Proceed to CN(C)Cc1ccc2cc(-c3nc4c(Cl)cccc4s3)c(=O)oc2c1 [Cpd 14]
179 to 182 °C

Proceed to Cc1cc(C)c2nc(-c3cc4ccc(N5CCNCC5)cc4oc3=O)cn2c1 [Compound 260]
219 to 229 °C
